Read-out record for Stromelysin-1 (Homo sapiens, UniProt P08254): pIC50
Friendly reminder that pIC50 comes from taking -log10 of the concentration in mol/L.

# assay system Stromelysin-1 (Homo sapiens, UniProt P08254): give pIC50 of O=C(NO)C1(S(=O)(=O)c2ccc(Oc3ccc(OC(F)(F)F)cc3)cc2)CCN(C2CC2)CC1
7.66

Look up and report pIC50, with Stromelysin-1 (Homo sapiens, UniProt P08254) as system, for CC(C)N1CCC(C(=O)NO)(S(=O)(=O)c2ccc(Oc3ccc(C(F)(F)F)cc3)cc2)CC1
Sequence (P08254 whole entry): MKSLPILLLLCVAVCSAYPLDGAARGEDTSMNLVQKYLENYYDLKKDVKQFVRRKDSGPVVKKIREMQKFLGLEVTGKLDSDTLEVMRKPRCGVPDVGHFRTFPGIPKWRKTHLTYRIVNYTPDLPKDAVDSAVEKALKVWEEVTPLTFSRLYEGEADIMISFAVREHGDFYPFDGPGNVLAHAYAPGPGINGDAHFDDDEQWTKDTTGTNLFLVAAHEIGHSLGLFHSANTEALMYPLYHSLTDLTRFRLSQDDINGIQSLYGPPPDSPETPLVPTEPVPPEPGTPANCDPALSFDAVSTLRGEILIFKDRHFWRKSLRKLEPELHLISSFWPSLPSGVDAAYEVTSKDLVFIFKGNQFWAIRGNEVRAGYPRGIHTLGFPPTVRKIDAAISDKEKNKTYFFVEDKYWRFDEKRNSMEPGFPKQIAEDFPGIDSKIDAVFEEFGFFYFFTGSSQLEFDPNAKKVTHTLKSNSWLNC
7.40

Output reported pIC50 of the compound O=C(NO)C1(S(=O)(=O)c2ccc(Oc3ccc(Cl)c(Cl)c3)cc2)CCOCC1 on Stromelysin-1 (Homo sapiens, UniProt P08254).
7.46

Write pIC50 of CCN1CCC(C(=O)NO)(S(=O)(=O)c2ccc(Oc3ccc(C(F)(F)F)cc3)cc2)CC1 ; system used: Stromelysin-1 (Homo sapiens, UniProt P08254)
7.43

GET pIC50 where system = Stromelysin-1 (Homo sapiens, UniProt P08254) and item = O=C(NO)C1(S(=O)(=O)c2ccc(Oc3ccc4c(c3)OCCO4)cc2)CCN(C2CC2)CC1
7.67

---

For each of the molecules below, state its bioavailability.
# measurement protocol: Oral bioavailability in rat at 20 mg/kg
# Assay type: ADME, organism-based
# test context: in vivo
State the answer as a number, implicitly in %.

Consider the molecule O=C(NO)C1(S(=O)(=O)c2ccc(Oc3ccc(C(F)(F)F)cc3)cc2)CCNCC1 . State its measured bioavailability.
12.4

Look up and report measured bioavailability for this entry: O=C(NO)C1(S(=O)(=O)c2ccc(Oc3ccc(OC(F)(F)F)cc3)cc2)CCN(Cc2cccnc2)CC1
49.8

Note bioavailability for the molecule shown: COCCN1CCC(C(=O)NO)(S(=O)(=O)c2ccc(Oc3ccc(SC(F)(F)F)cc3)cc2)CC1
34.1

Tell us which bioavailability value is on record for CCOCCN1CCC(C(=O)NO)(S(=O)(=O)c2ccc(Oc3ccc(OC(F)(F)F)cc3)cc2)CC1
14.7

Assign bioavailability to the following record: C#CCN1CCC(C(=O)NO)(S(=O)(=O)c2ccc(Oc3ccc(C(C)C)cc3)cc2)CC1
23.8

Answer with reported bioavailability of COCCN1CCC(C(=O)NO)(S(=O)(=O)c2ccc(Oc3ccc(OC(F)(F)F)cc3)cc2)CC1
67.9

Report bioavailability for O=C(NO)C1(S(=O)(=O)c2ccc(Oc3ccc(OC(F)(F)F)cc3)cc2)CCN(C2CC2)CC1
23

Tell us which bioavailability value is on record for C#CCN1CCC(C(=O)NO)(S(=O)(=O)c2ccc(Oc3ccc4c(c3)OCO4)cc2)CC1
30.1

Please give the documented bioavailability of C#CCN1CCC(C(=O)NO)(S(=O)(=O)c2ccc(Oc3ccc(OC)cc3)cc2)CC1
36.9

---

# measurement protocol: Half life in rat at 20 mg/kg, po
# Assay type: ADME, organism-based
# Set-up: dose 20 mg/kg, route oral
# test context: in vivo
Please go through the items and note down their half-life.
# output: bare number, implied unit h

Quick one: give measured half-life for O=C(NO)C1(S(=O)(=O)c2ccc(Oc3ccc(OC(F)(F)F)cc3)cc2)CCN(Cc2cccnc2)CC1
1.05

// Input: CC(C)N1CCC(C(=O)NO)(S(=O)(=O)c2ccc(Oc3ccc(C(F)(F)F)cc3)cc2)CC1 . Output its half-life only.
2.08

Dear colleague, please send me the reported half-life for O=C(NO)C1(S(=O)(=O)c2ccc(Oc3ccc(OC(F)(F)F)cc3)cc2)CCN(Cc2ccccn2)CC1 when you can.
1.25

Provide only the value of recorded half-life for C#CCN1CCC(C(=O)NO)(S(=O)(=O)c2ccc(Oc3ccc(OC)cc3)cc2)CC1
1.01
